# pIC50 values compiled below
Assayed system: Human fibrinogen receptor (αIIb β3) (Homo sapiens, UniProt P05106+P08514)
Construct: Human fibrinogen receptor (αIIb β3) was purified from outdated platelets; from tissue; host or cells: human outdated platelets
Sequence (P08514 32-887 limits assumed): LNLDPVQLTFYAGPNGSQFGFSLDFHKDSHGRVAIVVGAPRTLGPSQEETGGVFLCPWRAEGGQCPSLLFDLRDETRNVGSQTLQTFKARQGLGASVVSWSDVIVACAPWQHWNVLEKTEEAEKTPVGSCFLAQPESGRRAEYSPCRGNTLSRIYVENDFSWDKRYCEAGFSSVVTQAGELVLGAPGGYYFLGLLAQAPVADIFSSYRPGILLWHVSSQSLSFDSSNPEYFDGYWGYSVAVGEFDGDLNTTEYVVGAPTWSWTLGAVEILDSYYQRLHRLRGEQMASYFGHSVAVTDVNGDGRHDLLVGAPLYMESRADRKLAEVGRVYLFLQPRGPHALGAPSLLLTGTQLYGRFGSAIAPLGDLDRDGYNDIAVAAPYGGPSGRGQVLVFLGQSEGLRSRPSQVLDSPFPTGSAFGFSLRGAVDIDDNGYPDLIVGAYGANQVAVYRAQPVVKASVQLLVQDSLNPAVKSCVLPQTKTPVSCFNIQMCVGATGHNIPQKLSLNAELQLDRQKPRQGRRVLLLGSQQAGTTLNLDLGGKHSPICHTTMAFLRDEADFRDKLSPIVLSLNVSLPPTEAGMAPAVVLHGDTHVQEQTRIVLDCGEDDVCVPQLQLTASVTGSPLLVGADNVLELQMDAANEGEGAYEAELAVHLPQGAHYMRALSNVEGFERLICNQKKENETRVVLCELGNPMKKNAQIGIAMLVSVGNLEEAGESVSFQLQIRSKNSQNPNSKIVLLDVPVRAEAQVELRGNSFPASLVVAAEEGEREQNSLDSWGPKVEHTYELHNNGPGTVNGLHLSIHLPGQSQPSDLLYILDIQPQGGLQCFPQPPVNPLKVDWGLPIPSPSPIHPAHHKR
Sequence (P08514 891-1039 limits assumed): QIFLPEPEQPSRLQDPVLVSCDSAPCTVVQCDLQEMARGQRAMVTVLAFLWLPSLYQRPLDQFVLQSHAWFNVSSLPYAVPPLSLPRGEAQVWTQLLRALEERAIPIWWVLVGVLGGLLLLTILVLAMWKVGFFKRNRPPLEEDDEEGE
Sequence (P05106 27-788): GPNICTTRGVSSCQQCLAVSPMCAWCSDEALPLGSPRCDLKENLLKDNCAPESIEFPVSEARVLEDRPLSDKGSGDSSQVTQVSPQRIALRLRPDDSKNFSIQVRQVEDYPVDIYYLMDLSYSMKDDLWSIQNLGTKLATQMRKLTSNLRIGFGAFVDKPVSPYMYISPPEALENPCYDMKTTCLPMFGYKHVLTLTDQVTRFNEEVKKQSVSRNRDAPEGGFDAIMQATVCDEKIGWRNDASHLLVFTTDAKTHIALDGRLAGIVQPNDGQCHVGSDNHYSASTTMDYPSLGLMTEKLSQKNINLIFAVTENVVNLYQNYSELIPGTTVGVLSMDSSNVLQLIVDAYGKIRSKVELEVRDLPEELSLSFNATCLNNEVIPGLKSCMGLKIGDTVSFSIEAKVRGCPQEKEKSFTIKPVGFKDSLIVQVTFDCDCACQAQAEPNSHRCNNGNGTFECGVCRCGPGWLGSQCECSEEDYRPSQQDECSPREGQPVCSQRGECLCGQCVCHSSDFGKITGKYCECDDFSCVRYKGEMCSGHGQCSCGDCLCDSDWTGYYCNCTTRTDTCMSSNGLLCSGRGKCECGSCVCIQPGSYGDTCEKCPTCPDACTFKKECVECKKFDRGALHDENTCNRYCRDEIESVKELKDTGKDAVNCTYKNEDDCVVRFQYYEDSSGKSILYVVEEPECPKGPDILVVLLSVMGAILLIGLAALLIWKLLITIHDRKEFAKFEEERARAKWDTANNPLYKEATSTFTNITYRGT
Experimental details: Purified IIb/IIIa receptor assay (solid phase receptor assay)
Run conditions: inhibition of binding of biotinylated human vitronectin (1 nM) to purified receptor; Table I
pIC50: −log10 of the molar value. Counter-ions that a name gives are not always drawn.

Molecule	pIC50
COC(=O)/C=C/c1ccc(NC(=O)c2cccc(NC3=NCCCN3)c2)cc1C(=O)O [Example 40C, trifluoroacetate salt]	4.69
O=C(O)/C=C/c1ccc(NC(=O)c2cccc(NC3=NCCN3)c2)c(Cl)c1 [Example 23, trifluoroacetate salt]	7.10
COc1ccc(/C=C/C(=O)O)cc1C(=O)/C=C/c1cccc(NC2=NCCN2)c1 [Example 87, trifluoroacetate salt]	5.58
O=C(O)/C=C/c1cccc(CNC(=O)c2cccc(NC3=NCCN3)c2)c1 [Example 67, monohydrochloride hydrate]	4.92
O=C(O)/C=C/c1ccc(OCc2cccc(NC3=NCCCN3)c2)cc1 [Example 101, trifluoroacetate salt]	6.93
O=C(O)/C=C/c1cccc(/C=C/C(=O)c2cccc(NC3=NCCCN3)c2)c1 [Example 94, trifluoroacetate salt]	5.57
N=C(N)Nc1cccc(C(=O)Nc2ccc(C(=CC(=O)O)c3ccccc3)cc2)c1 (single isomer, unassigned) [Example 58, trifluoroacetate salt]	5.64
O=C(O)/C=C/c1cccc(CCC(=O)c2cccc(NC3=NCCCN3)c2)c1 [Example 95, trifluoroacetate salt hydrate]	4.93
N=C(N)Nc1cccc(C(=O)Nc2ccc(/C=C/C(=O)O)c(/C=C/C(=O)O)c2)c1 [Example 42, trifluoroacetate salt]	7.80
N=C(N)Nc1cccc(C(=O)Nc2ccc(/C=C/C(=O)O)c(C(=O)O)c2)c1 [Example 36, trifluoroacetate salt]	8.04
Cc1cc(/C=C/C(=O)O)cc(C)c1NC(=O)c1cccc(NC2=NCCN2)c1 [Example 25, trifluoroacetate salt]	5.74
N=C(N)Nc1cccc(/C=C/C(=O)c2cccc(/C=C/C(=O)O)c2)c1 [Example 88, trifluoroacetate salt]	5.58
O=C(O)/C=C/c1ccc2c(c1)CCCN2C(=O)c1cccc(NC2=NCCCN2)c1 [Example 78, trifluoroacetate salt]	5.75
O=C(O)/C=C/c1cccc(CNC(=O)c2cc(NC3=NCCCN3)cc(C(F)(F)F)c2)c1 [Example 69, dihydrochloride hydrate]	4.41
N=C(N)Nc1cccc(C(=O)/C=C/c2cccc(/C=C/C(=O)O)c2)c1 [Example 89, trifluoroacetate salt hydrate]	5.90
N=C(N)Nc1cccc(C(=O)Nc2cc(Cl)c(/C=C/C(=O)O)c(Cl)c2)c1 [Example 29, dihydrochloride dihydrate]	4.60
O=C(O)/C=C/c1ccc(NC(=O)c2cccc(NC3=NCCCN3)c2)cc1 [Example 49, trifluoroacetate salt]	6.18

All figures here come from patent US5852210A.
